# credit: PubChem BioAssay (NCATS)

# SYSTEM TESTED: Papain (Carica papaya) (UniProt P00784)
# Sequence (P00784 whole entry, looked up): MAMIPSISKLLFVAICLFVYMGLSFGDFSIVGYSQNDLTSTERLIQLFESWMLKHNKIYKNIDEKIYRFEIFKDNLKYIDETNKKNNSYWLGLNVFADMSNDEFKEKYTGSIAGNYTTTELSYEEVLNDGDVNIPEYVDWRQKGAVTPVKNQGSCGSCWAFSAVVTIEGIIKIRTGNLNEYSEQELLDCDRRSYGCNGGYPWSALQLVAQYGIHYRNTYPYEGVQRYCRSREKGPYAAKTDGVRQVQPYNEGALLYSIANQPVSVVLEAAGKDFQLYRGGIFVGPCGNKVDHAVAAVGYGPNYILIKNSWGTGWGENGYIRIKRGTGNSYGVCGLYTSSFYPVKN
# PROCEDURE TEXT: Primary qHTS assay for inhibitors of the protease papain (AID 1645873);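 note: papain turnover of Z-FR-AMC read as the AMC fluorescence gain over 10 min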
# CONDITION NOTES: papain Z-FR-AMC cleavage, AMC fluorescence; series mostly up to 49.8 µM
Inconclusive results are not listed. Active and inactive are the calls of the source. Calls come from the whole dose curve; as a rule, active = well fitted inhibition curve with a large enough effect; inconclusive = small, poorly fitted or top-dose-only effect; inactive = no such curve, though single readings can be large or run the other way.
Labels: 1.0 = active, 0.0 = inactive

| COMPOUND | CATEGORY |
| --- | --- |
| CCOC(=O)C12CC1/C(=N/O)c1ccccc1O2 (stereo unspecified) | 0.0 |
| CC(=O)O[C@H]1CC2(C)[C@@H](C[C@@H](O)[C@H]3[C@@]4(C)CC[C@@H](O)[C@@H](C)[C@@H]4CC[C@@]32C)C1=C(CCC=C(C)C)C(=O)O (stereo partly specified) | 0.0 |
| NCC(O)C1CCCCCCC1 (stereo unspecified) | 0.0 |
| CCN(CC)CCCCCCCCOC(=O)c1cc(OC)c(OC)c(OC)c1 | 0.0 |
| c1ccc2c(c1)CC(N1CCN(c3cccc4c3OCCO4)CC1)C2 | 0.0 |
| O=C(O)C1=CCCNC1 | 0.0 |
| N[C@@H](Cc1c[nH]c2ccccc12)C(=O)O | 0.0 |
| NCCCNCCCCNCCCN | 0.0 |
| NC(N)=N[C@@H](CCC(=O)O)C(=O)O | 0.0 |
| CCCCCCCC/C=C\CCCCCCCC(=O)NCCc1ccc(O)c(O)c1 | 0.0 |
| COC(=O)C(C)(N)Cc1ccc(O)cc1 (stereo unspecified) | 0.0 |
| CCN(CC)CCOC(=O)c1cc(Cl)c(N)cc1OC | 0.0 |
| CC1CCN=C(N)S1 (stereo unspecified) | 0.0 |
| O=C(O)[C@H]1NCCC[C@H]1C(=O)O | 0.0 |
| NC1CONC1=O (stereo unspecified) | 0.0 |
| COc1ccccc1N1CCN(CCN(C(=O)c2ccc(F)cc2)c2ccccn2)CC1 | 0.0 |
| Oc1cc2c(cc1O)C(c1ccccc1)CNCC2 (stereo unspecified) | 0.0 |
| CCC1(O)CC2CN(CCc3c([nH]c4ccccc34)[C@@](C(=O)OC)(c3cc4c(cc3OC)N(C=O)C3[C@]45CCN4CC=C[C@@](CC)([C@@H](OC(C)=O)[C@]3(O)C(=O)OC)[C@H]45)C2)C1 (stereo partly specified) | 0.0 |
| CCCCCCCCCCCCCCSCC(=O)O | 0.0 |
| COc1cc(N)c(Cl)cc1C(=O)OCCN1CCCCC1 | 0.0 |
| CC(N)=O | 0.0 |
| c1ccc2c(c1)CCC[C@H]2Nc1nc2ccccc2[nH]1 | 0.0 |
| CC(=O)NCCc1c[nH]c2ccc(O)cc12 | 0.0 |
| C#CCn1c(=O)c2c(ncn2C)n(C)c1=O | 0.0 |
| OC[C@H]1O[C@@H](n2cnc3cncnc32)[C@H](O)[C@@H]1O | 0.0 |
| CC(N)(C(=O)O)c1ccc(C(=O)O)cc1 (stereo unspecified) | 0.0 |
| [Li+] | 0.0 |
| COC1(C2=NCCN2)COc2ccccc2O1 (stereo unspecified) | 0.0 |
| CC(=O)C(C)=O | 0.0 |
| OC[C@H]1O[C@H](n2cnc3c(N[C@H]4CCC[C@@H]4O)ncnc32)[C@H](O)[C@@H]1O | 0.0 |
| CN1CCC2(CCN3CCc4c(oc5ccccc45)C3C2)N(C)C1=O (stereo unspecified) | 0.0 |
| C[N+](C)(C)CC=O | 0.0 |
| O=C(O)CCC(=O)N1CCCC1C(=O)O (stereo unspecified) | 0.0 |
| NC[C@@H]1O[C@H](c2ccccc2)Cc2c1ccc(O)c2O | 0.0 |
| CC(C)(C)c1ccc(/C=C/C(=O)Nc2ccc3c(c2)OCCO3)cc1 | 0.0 |
| CC(C)NC[C@H](O)COc1ccc(CC(N)=O)cc1 | 0.0 |
| NCCCCN=C(N)N | 0.0 |
| C[C@](Cc1ccc(O)c(O)c1)(NN)C(=O)O | 0.0 |
| O=C(N[C@@H](Cc1ccccc1)C(=O)CCl)OCc1ccccc1 | 1.0 |
| Oc1ccc(Cn2cc[nH]c2=S)cc1 | 0.0 |
| O=c1[nH]c(=O)c2nc3ccccc3nc2[nH]1 | 0.0 |
| CCCCS(=N)(=O)CC[C@H](N)C(=O)O (stereo partly specified) | 0.0 |
| Cn1cc(C(F)(F)F)nc1-c1ccc(OCC(O)CNCCOc2ccc(O)c(C(N)=O)c2)cc1 (stereo unspecified) | 0.0 |
| O=C(O)CCC/C=C\C[C@@H]1[C@@H](/C=C/[C@H](O)C2Cc3ccccc3C2)[C@@H](F)C[C@@H]1O | 0.0 |
| CCN1C(=O)C=CC1=O | 0.0 |
| O=c1oc(Cl)c(Cl)c2ccccc12 | 0.0 |
| N=C(N)c1ccccc1 | 0.0 |
| CCC(=O)N1CCN(C(=O)c2ccccc2)CC1 | 0.0 |
| OC1(c2ccc(Cl)cc2)CCN(Cc2c[nH]c3ccccc23)CC1 | 0.0 |
| CCCn1c(=O)c2[nH]c(-c3ccc(S(=O)(=O)O)cc3)nc2n(CCC)c1=O | 1.0 |
| COc1ccccc1N1CCN(CCCCN2C(=O)c3ccccc3C2=O)CC1 | 0.0 |
